Provenance of the data: PubChem BioAssay

- Test system: Neuregulin-1 EGF-like domain
- Protocol: small molecules binding NRG1 EGF domain – biochemical, small-molecule microarray, 635 nm fluorescence, primary screen (AID 1081);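 further: binding of the protein to compounds printed on small-molecule microarray slides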
- Run Conditions: higher = more signal
Experimental Endpoint: composite z-score
One number for each entry.

Sample answers from the record:
COCCCNC(=O)[C@@]1(CCC(=O)OC(C)(C)C)N=C(c2ccc(OCCCO)cc2)O[C@H]1c1ccccc1N=[N+]=[N-]; 1.4
COCCOC(=O)N1C(=O)[C@@]2(c3ccccc31)[C@H](C(=O)NC[C@H](O)c1ccccc1)[C@H]1C(=O)O[C@H](c3ccccc3)[C@H](c3ccccc3)N1[C@@H]2c1ccc(O)cc1; 1.25
COC(=O)[C@@]1(Cc2ccc(OC)cc2)[C@H]2c3cc(C(=O)N(C)C)n(Cc4ccc(OC(F)(F)F)cc4)c3C[C@H]2CN1C(=O)c1ccccc1; 1.44
O[C@@H](Cc1ccccc1)[C@@H](/C=C/C1CC1)N(CC#Cc1ccccc1)Cc1ccccc1Br; -0.0401
C=C(/C(=C/C[C@H](OC(C)=O)c1ccc(CO)o1)c1cnc2ccccc2c1)C(C)C; 1.04

Need composite z-score for each of these compounds.
1. CCCNC(=O)[C@@H]1c2ccccc2C(=O)N(Cc2ccc(OC(F)(F)F)cc2)[C@H]1c1ccc(CO)cc1
2. CC[C@@H]1C=C(C(=O)O)[C@H](c2ccc(C#N)cc2)N1S(=O)(=O)c1ccc(C)cc1
3. CN(C)CCCCCCNC(=O)[C@@H]1C[C@@H]2C(=O)N3CCC[C@H]3C(=O)N2[C@@H]1c1cccc(OCCO)c1

Response:
1. 1.24
2. 1.3
3. 1.48

Need composite z-score for each of these compounds.
1. O=C1[C@H]2C=C(I)[C@H](C[C@@H]2OCCOCCO)[C@@]12CO2
2. [N-]=[N+]=Nc1ccccc1C[C@@]1(C(=O)N2CCOCC2)N=C(c2ccc(OCCCO)cc2)O[C@@H]1c1ccccc1
3. CO[C@H]1O[C@H](CO)[C@@H](OC(=O)Nc2ccc(Br)cc2)[C@@H]2OC(=O)[C@@H](Cc3ccccc3)C/C=C/C[C@H](Cc3ccccc3)C(=O)O[C@@H]12

Response:
0.653
1.18
1.09

Need composite z-score for each of these compounds.
1. CCCCCCCCCCC(O)C1C=CC2C(=O)N(c3ccccc3)C(=O)C2N1Nc1ccc(C#N)cc1 (stereo unspecified)
2. [N-]=[N+]=Nc1ccccc1C[C@]1(C(=O)NCCN2CCOCC2)COC(c2ccc(OCCCO)cc2)=N1
3. COC(=O)C1=CC(CCCO)=CC(c2ccc(CN3CCCC3)cc2)N(Cc2cccc(OC(F)(F)F)c2)C=C1C(=O)OC (stereo unspecified)
4. C[C@@H]1NC(=O)[C@@H](Cc2ccccc2)NC(=O)[C@@]23C(=O)N[C@@H](Cc4ccccc4)C2[C@H](C)[C@@]2(C)O[C@H]2C3/C=C/C/C=C\CNC1=O (stereo partly specified)
5. O=C(NCCN1CCOCC1)[C@@H]1c2ccccc2C(=O)N(C2Cc3ccccc3C2)[C@H]1c1ccc(CO)cc1
6. CCCC[C@@H]1C[C@H]1[C@@H](NC(=O)c1cccs1)c1ccccc1C(F)(F)F
7. NCCCCCNC(=O)[C@H]1C[C@H]2C(=O)N3CCC[C@H]3C(=O)N2[C@H]1c1cccc(OCCO)c1

Response:
1. 0.98
2. 1.39
3. 1.11
4. 0.305
5. 1.25
6. 1.1
7. 1.43

----------
- Protocol: budding yeast growth modifiers under rapamycin – strain BY4716, OD600, 96 h, primary screen (AID 1091); further: test concentration not given here
- Run Conditions: S. cerevisiae BY4716 + rapamycin, higher = more signal, called active from +8 up or from −8 down
# label = bin(measured z-score), where bins are small value (below -0.09), mid value (-0.09 to below 1), large value (1 or more)

These recorded examples may help you get a feel for the data.
CCCC[C@@H](O)C1=C(COC)C[C@H]2C(=O)N(C)C(=O)[C@H]2[C@H]1CO; small value
NC(=O)NCC#Cc1ccc2c(c1)[C@]1(C(=O)N2)[C@H](c2ccccc2OCCO)N2[C@H](c3ccccc3)[C@H](c3ccccc3)OC(=O)[C@H]2[C@@H]1C(=O)NC[C@H](O)c1ccccc1; large value
COc1ccc(CCNC(=O)[C@@H]2c3ccccc3C(=O)N(C3CCCCC3)[C@H]2c2ccc(CO)cc2)cc1; mid value
C[N+](C)(C)CCCC[C@@H]1NC(=O)[C@@H]2C[C@H](C(=O)NCCCCCCN)[C@H](c3cccc(OCCO)c3)N2C1=O; small value
CS(=O)(=O)CCOC(=O)C1=CC(c2ccc(CO)cc2)=CC(C2CC2)N(Cc2sc3ccccc3c2Cl)C=C1C(=O)OCCS(C)(=O)=O (centres undefined); small value
CC1CC/C=C\[C@H]2OC34C=CCN(C(C)C)C(=O)[C@H]3N(CCO)C(=O)[C@@H]4C2C(=O)O1 (some centres undefined); mid value
[N-]=[N+]=Nc1ccccc1C[C@]1(C(=O)N2CCOCC2)COC(c2ccc(OCCCO)cc2)=N1; small value
CCCNC(=O)[C@@]1(Sc2ccc(C)cc2)CC(=O)N(C2Cc3ccccc3C2)[C@@H]1c1ccc(CO)cc1I; large value

Request: Lab note: which band did `COCCOC(=O)N1C(=O)[C@@]2(c3ccccc31)[C@H](C(=O)NC[C@H](O)c1ccccc1)[C@H]1C(=O)O[C@H](c3ccccc3)[C@H](c3ccccc3)N1[C@@H]2c1ccc(O)cc1` land in?
Response: large value

Request: Lab note: which band did `CCOC(=O)C[C@H]1[C@H](OC(=O)Cc2ccc3c(c2)OCO3)[C@@H](NC(=O)C2CCCCC2)c2cc(OCCCO)ccc2N1C(=O)c1ccccc1` land in?
Response: mid value

Request: Lab note: which band did `COc1cccc(C)c1NC(=O)O[C@H]1[C@H](OC(=O)Nc2ccccc2-c2ccccc2)[C@H](OC(=O)Nc2ccccc2-c2ccccc2)[C@@H](OC)O[C@@H]1CO` land in?
Response: large value

Request: Lab note: which band did `CC(C)=C1C(=O)C(c2ccccc2)=C2CN3C(=O)N(CCc4ccccc4)C(=O)[C@]3(Cc3ccc(C(F)(F)F)cc3)[C@H]21` land in?
Response: mid value

Request: Lab note: which band did CCCCC(CC)C(O)C1C=CC2C(=O)N(c3ccccc3)C(=O)C2N1Nc1ccc(C#N)cc1 (centres undefined) land in?
Response: large value

----------
For each record, write down the corresponding z-score.
- Protocol: budding yeast growth changes without added modifier – OD600, strain BY4716, 24 h, basal condition, primary screen (AID 1173)
- Run Conditions: S. cerevisiae BY4716 growth, OD600, 24 h; higher = more signal, called active from +8 up or from −8 down
Give bare numbers.

Sample answers from the record:
O=C1N(Cc2ccccc2)c2ccccc2C[C@]12N=C(c1ccc(OCCCO)cc1)O[C@@H]2c1ccccc1; 0.0989
O=C(Cc1ccccc1)[C@H]1C2C=CCCC(c3ccccc3)=C2CN1Cc1ccccc1 (some centres undefined); -2.98
[N-]=[N+]=NCc1ccccc1C[C@@]1(C(N)=O)N=C(c2ccc(OCCCO)cc2)O[C@@H]1c1ccccc1; -0.165

Request: Assign z-score to the following record: `COCCCNC(=O)[C@@]1(Sc2ccc(C)cc2)CC(=O)N(C2Cc3ccccc3C2)[C@@H]1c1ccc(CO)cc1`
Response: -0.153

----------
For each record, write down the corresponding composite z-score.
- Tested On: Albumin (Bos taurus) (UniProt P02769)
- Sequence (P02769 whole entry, looked up): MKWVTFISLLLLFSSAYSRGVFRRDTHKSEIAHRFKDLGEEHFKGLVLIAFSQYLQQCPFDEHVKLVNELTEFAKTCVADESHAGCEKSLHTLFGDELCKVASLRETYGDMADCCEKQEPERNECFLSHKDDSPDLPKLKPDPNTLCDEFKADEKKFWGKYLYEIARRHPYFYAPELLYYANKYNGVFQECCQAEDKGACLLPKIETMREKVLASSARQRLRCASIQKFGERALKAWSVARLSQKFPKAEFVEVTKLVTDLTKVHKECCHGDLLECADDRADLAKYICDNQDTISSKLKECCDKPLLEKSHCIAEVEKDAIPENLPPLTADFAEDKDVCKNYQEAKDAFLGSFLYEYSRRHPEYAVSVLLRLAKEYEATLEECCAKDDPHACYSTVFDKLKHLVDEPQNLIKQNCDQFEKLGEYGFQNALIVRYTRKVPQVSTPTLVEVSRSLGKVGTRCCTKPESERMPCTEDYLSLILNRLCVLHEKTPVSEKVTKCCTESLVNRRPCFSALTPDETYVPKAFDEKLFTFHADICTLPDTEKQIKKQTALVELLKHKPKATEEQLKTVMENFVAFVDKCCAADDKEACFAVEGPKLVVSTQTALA
- Protocol: compounds binding labelled BSA control protein – biochemical, small-molecule microarray, Alexa647 label, 635/667 nm fluorescence, artefact control for SMM control protein annotation, profiling panel (AID 1118);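 further: score merges 667 nm emission intensity and signal-to-noise per printed compound spot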
- Run Conditions: BSA-A647 binding, fluorescence 635 nm, higher = more signal
Answers are plain numbers.

COCCOC(=O)N1C(=O)[C@@]2(c3ccccc31)[C@H](c1ccc(O)cc1)N1[C@H](c3ccccc3)[C@H](c3ccccc3)OC(=O)[C@H]1[C@@H]2C(=O)N1CCN(c2ncccn2)CC1; 0.397
Cc1ccc(S[C@]2(C(=O)NCC(F)(F)F)CC(=O)N(Cc3cc(C(F)(F)F)cc(C(F)(F)F)c3)[C@@H]2c2ccc(CO)cc2)cc1; -0.658
OCCCC1=CC(c2ccc(CN3CCCC3)cc2)N(Cc2cc3c(cc2Br)OCO3)CC1 (stereo not given); -0.715
CCCC=C(CCC)[C@@H](NS(=O)(=O)c1ccc(C(F)(F)F)cc1)c1ccccc1; -0.127
COc1ccc([Si](C)(C)[C@@H]2[C@@H](CCO)O[C@]3(C(=O)N(Cc4ccccc4)c4ccc(NC(=O)[C@H](C)O)cc43)[C@H]2C)cc1; 0.0962
CC(C)C(CO)N1C(=O)[C@@H]2C3C(=O)OCCC/C=C\[C@H]3OC23C=CCN(Cn2nnc4ccccc42)C(=O)[C@@H]13 (stereo not given in full); -0.37

Need composite z-score for each of these molecules.
1. CCCC[C@@H](O)C1=C(COC)C[C@H]2C(=O)N(Cc3ccccc3)C(=O)[C@H]2[C@H]1CO
2. O[C@@H](Cc1ccccc1)[C@@H](/C=C/C1CC1)N(CC#Cc1ccccc1)Cc1ccccc1Br
3. O=C1C2C=CC(C(O)c3ccco3)N(Nc3ccccc3F)C2C(=O)N1c1ccccc1 (stereo not given)
4. Cc1ccc(NN2C(C(O)c3c(F)cccc3Cl)C=CC3C(=O)N(C4CCCCC4)C(=O)C32)cc1 (stereo not given)
5. C=CCC(OC(C)=O)[C@@H]1[C@@H](N(Cc2cccc3ccccc23)C(=O)Cc2ccc(F)cc2)c2cc(OCCCO)ccc2N1C(=O)c1ccc2ccccc2c1 (stereo not given in full)
6. Cc1ccc(S[C@]2(C(=O)NC(C)C)CC(=O)N(Cc3cc(C(F)(F)F)cc(C(F)(F)F)c3)[C@@H]2c2ccc(CO)cc2)cc1
7. COCC(=C=CC[C@H](O)c1ccccc1OCCO)C[C@H](O)c1ccccn1

Response:
1: 0.232; 2: -0.144; 3: 0.963; 4: 0.979; 5: -0.0241; 6: -0.0844; 7: 0.519

Need composite z-score for each of these molecules.
1. CCOC(=O)C[C@H]1[C@H](OC(=O)c2ccc(C(=O)c3ccccc3)cc2)[C@@H](NC(=O)C2CCCCC2)c2cc(OCCCO)ccc2N1C(=O)c1ccc2ccccc2n1
2. COc1ccc([Si](C)(C)[C@@H]2[C@@H](CCO)O[C@]3(C(=O)N(Cc4cccc(NC(=O)[C@H](C)O)c4)c4ccccc43)[C@H]2C)cc1

Response:
1: 0.534; 2: 0.6
